test: cytotoxicity in HPDE-C7 cells, cell-based, fluorescence, HTS (AID 430); settings: HPDE-C7 pancreatic duct cells viability, at 10 µM, hits give high values;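 also: cells exposed to compound for 48 hours before viability readout; 0% = vehicle and 100% = reference cytotoxic drug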
Screen size: about 63,000 compounds; about 1,100 (1.7%) were called active. What follows is part of a selection rich in actives, with near analogues and random picks from the rest. Entries with a potency or affinity are not part of this list.
property.label: cytotoxicity (%)
Report only the number, with the unit % understood.

Recorded cytotoxicity, per entry:
- CC(C)N1C(=O)CCC1C(=O)NC1CCCC1 (stereo unspecified): -3.8
- COc1ccc(-c2nnc(-c3cccs3)o2)cc1OC: -10.3
- c1cn2c(NC3CCCC3)c(-c3ccc(N4CCOCC4)cc3)nc2cn1: 2.8
- Cc1nc(N2CCC(C)CC2)c2c(C)c(C(=O)O)sc2n1: -38.1
- CCc1ccc(C2CC(=O)N3CN(c4ccccc4)CSC3=C2C#N)cc1 (stereo unspecified): -1.3

INPUT: Return cytotoxicity for the following compound: `COc1ccc(-c2nc(-c3cccs3)c(-c3cccs3)[nH]2)cc1O`
OUTPUT: 71.6

INPUT: Return cytotoxicity for the following compound: `Cc1c(C(=O)OCCOC(C)C)[nH]c2c1C(=O)CC(C)(C)C2`
OUTPUT: -12

###

test: cytotoxicity in HPDE-C7 cells, cell-based, fluorescence, HTS (AID 430); conditions: HPDE-C7 pancreatic duct cells viability, at 10 µM, hits give high values;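 also: cells exposed to compound for 48 hours before viability readout; 0% = vehicle and 100% = reference cytotoxic drug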
The whole screen tested about 63,000 compounds, of which about 1,100 (1.7%) were called active. Shown is part of a subset that was picked to be rich in actives. Measured potencies and affinities stand elsewhere.
property.label: cytotoxicity (%)
Report only the number, with the unit % understood.

INPUT: Return cytotoxicity for the following compound: `C=C(C)COc1ccc(-c2n[nH]c(C)c2Oc2ccccc2OC)c(O)c1`
OUTPUT: 61.3

INPUT: Return cytotoxicity for the following compound: `CCOC(=O)C1CCN(C(=O)CSc2n[nH]c(=O)[nH]c2=O)CC1`
OUTPUT: 9.8

INPUT: Return cytotoxicity for the following compound: CC1CN(C2CCCCC2)c2nc3c(c(=O)[nH]c(=O)n3C)n2C1 (configuration not stated)
OUTPUT: -2

INPUT: Return cytotoxicity for the following compound: `Cc1ccc2nc(NCCO)nc(-c3ccccc3)c2c1`
OUTPUT: 16.6

INPUT: Return cytotoxicity for the following compound: `O=c1c2ccccc2oc2ncccc12`
OUTPUT: -24.9

INPUT: Return cytotoxicity for the following compound: `CCOc1ccc(-c2n[nH]c(C)c2Oc2ccccc2OC)c(O)c1`
OUTPUT: -2.5

INPUT: Return cytotoxicity for the following compound: `c1ccc2oc(SCc3nc4ccccc4s3)nc2c1`
OUTPUT: 8.6

INPUT: Return cytotoxicity for the following compound: CC1CCCCN1C(=O)CSc1nnc(-c2ccco2)n1CC1CCCO1 (configuration not stated)
OUTPUT: 3.9

INPUT: Return cytotoxicity for the following compound: `Cc1noc(C)c1COC(=O)c1ccc2c(c1)OCO2`
OUTPUT: -8.9

INPUT: Return cytotoxicity for the following compound: `C=C(C)COc1ccc(-c2nc(N)nc(C)c2Oc2ccccc2OC)c(O)c1`
OUTPUT: -1.3

INPUT: Return cytotoxicity for the following compound: `O=C(CSc1nc2ccccc2s1)Nc1ncccn1`
OUTPUT: -3.2

INPUT: Return cytotoxicity for the following compound: `CCS(=O)(=O)CCSc1nc2ccccc2o1`
OUTPUT: -9.3
